Ref: PubChem BioAssay (NCI)

# Test system: HCT-15 colon
# Protocol Notes: NCI tumour cell line growth inhibition, 48 h; in the data active = GI50 below about 0.43 µM; inactive = the rest
Could you please pick one outcome from this set? active, inactive

Consider the worked cases shown below.
1. CCOC(=O)Nc1cc2c(c(N)n1)N=C(c1ccccc1)[C@H](C)N2; active
2. O=C(CCCN1CCOCC1)Nc1ccc(Cn2nnc3c2C(=O)c2nnn(Cc4ccc(NC(=O)CCCN5CCOCC5)cc4)c2C3=O)cc1; inactive
3. COC(=O)[C@]12CC[C@@H](C)[C@H](C)[C@@H]1C1=CC[C@@H]3[C@@]4(C)C(C=O)=C[C@@](C)(COC(=O)c5ccco5)[C@@H]4C(=O)C[C@@]3(C)[C@]1(C)CC2; inactive
4. O=C1c2ccccc2C(=Cc2ccccc2)c2ccccc21; inactive

## Input Please share the test call associated with CC1CCN(CCCCCOc2ccc3oc4cc(Cl)ccc4c(=O)c3c2)CC1 .
## Output inactive

## Input Status in this test for N#Cc1ccc(N2Cc3ccccc3OC3=C2C(=O)c2c(O)ccc(O)c2C3=O)cc1 ?
## Output active

## Input GET /call?item= CCOC(=O)/C=C/c1cc2cc(-c3csc4ccccc34)ccc2[nH]1 returns the recorded outcome of this test.
## Output inactive

## Input What call does the record list for O=C(CSC(c1ccccc1)c1ccccc1)N/N=C/c1cccc(Cl)c1 ?
## Output inactive

## Input Which outcome was assigned to Cc1noc(C)c1-c1cc(O)cc(C(O)c2ccccc2)c1 (centres undefined) in this test?
## Output inactive

## Input Identify the outcome logged in this assay for the compound shown: CC[C@H](Nc1nc(N)nc(C)c1C#N)c1nc2cccc(NCc3ccc(C(=O)NO)cc3)c2c(=O)n1-c1ccccc1
## Output inactive

## Input Each compound tested received a call. Report the one for COc1ccc2c(c1)C(=O)c1c-2c(Nc2ccc(C(C)=O)cc2)nc2ccccc12 .
## Output inactive

## Input Check the results log: what was the call for Oc1c(CN2CCCC2)cc(COCc2ccc(Br)cc2)c2cccnc12 ?
## Output active

## Input Per the assay record, what outcome was assigned to CC(=O)O[C@H](C[C@H](C(C)C)N(C)C(=O)[C@@H](NC(=O)[C@H]1CCCCN1C)C(C)C)c1nc(C(=O)N[C@@H](Cc2ccccc2)C[C@H](C)C(=O)O)c(C(C)C)s1 ?
## Output active

## Input Which outcome was entered for the compound O=C(Nc1ccc(Cl)cc1F)c1cc(I)ccc1O in this test?
## Output inactive

###

# Tested on: SN12C renal
# Protocol Notes: NCI tumour cell line growth inhibition, 48 h
Would you kindly list TGI for each of these compounds?

1. CCOc1cc2c(cc1O)/C(=N\O)C[C@@H]1[C@@H]2CC[C@]2(C)[C@@H](O)CC[C@@H]12; > 100 µM
2. Cc1ccc(Nc2n[nH]c(=S)s2)cc1; > 100 µM
3. CN1CCN(Cc2ccc(NC(=O)c3cncc(C#Cc4cncc5ncccc45)c3)cc2C(F)(F)F)CC1; 11.8 µM
4. COc1ccc2c(c1)C(=O)c1c-2c(Nc2ccc(C(C)=O)cc2)nc2ccccc12; > 100 µM
5. O1C2C1C1OC1C1OC1C1OC21 (stereo unspecified); > 100 µM

Turning now to a further record.
## Input Query (compound): CN(C)c1ccc(/C=C2\N=C(c3ccc([N+](=O)[O-])cc3)OC2=O)cc1 ; field requested: TGI
## Output > 100 µM
